B1: NP_002788.1 (parent)
chain: DGWIRVSSDNVADLHEKYSGSTP

Variants of: B1
procedure-text: protein stability index of a GFP-peptide fusion (GPS, HEK-293T) (PSI 1-6); higher = more stable;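 further: lentivirally expressed fusion library, cells FACS-sorted into six equal-sized GFP/DsRed ratio bins, PSI computed from sequencing read fractions per bin weighted by bin number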
recorded-conditions: c terminus: native
endpoint: protein stability index
Answer using only a numeral; do not append any unit.

Qu. Looking for the measured protein stability index of W3R , can you help?
Ans. 5.15

Qu. Looking for the measured protein stability index of G20C , can you help?
Ans. 2.82

Qu. Looking for the measured protein stability index of S8Q , can you help?
Ans. 2.54

Qu. Looking for the measured protein stability index of K17W , can you help?
Ans. 2.97

Qu. Looking for the measured protein stability index of D9S , can you help?
Ans. 2.74

Qu. Looking for the measured protein stability index of S7V , can you help?
Ans. 2.06

Qu. Looking for the measured protein stability index of S21V , can you help?
Ans. 1.83

Qu. Looking for the measured protein stability index of D9W , can you help?
Ans. 2.19

Qu. Looking for the measured protein stability index of D13H , can you help?
Ans. 2.38

Qu. Looking for the measured protein stability index of G20L , can you help?
Ans. 3.72

Qu. Looking for the measured protein stability index of V6W , can you help?
Ans. 3.04

Qu. Looking for the measured protein stability index of D1E , can you help?
Ans. 2.54

Qu. Looking for the measured protein stability index of I4L , can you help?
Ans. 3.18

Qu. Looking for the measured protein stability index of D13I , can you help?
Ans. 2.53

Qu. Looking for the measured protein stability index of V11M , can you help?
Ans. 2.64

Qu. Looking for the measured protein stability index of L14V , can you help?
Ans. 2.36

Qu. Looking for the measured protein stability index of R5S , can you help?
Ans. 2.51

Qu. Looking for the measured protein stability index of Y18V , can you help?
Ans. 3.22

Qu. Looking for the measured protein stability index of A12V , can you help?
Ans. 2.44

Qu. Looking for the measured protein stability index of V11W , can you help?
Ans. 2.4

Qu. Looking for the measured protein stability index of D1L , can you help?
Ans. 2.2

Qu. Looking for the measured protein stability index of N10M , can you help?
Ans. 2.67

Qu. Looking for the measured protein stability index of Y18H , can you help?
Ans. 2.68

Qu. Looking for the measured protein stability index of S8Y , can you help?
Ans. 2.14

Qu. Looking for the measured protein stability index of P23A , can you help?
Ans. 4.55

Qu. Looking for the measured protein stability index of D13R , can you help?
Ans. 2.04

Qu. Looking for the measured protein stability index of G2S , can you help?
Ans. 2.13

Qu. Looking for the measured protein stability index of G20K , can you help?
Ans. 3.93

Qu. Looking for the measured protein stability index of D1Y , can you help?
Ans. 2.07

Qu. Looking for the measured protein stability index of G2A , can you help?
Ans. 2.25

Qu. Looking for the measured protein stability index of W3I , can you help?
Ans. 5.33

Qu. Looking for the measured protein stability index of S19M , can you help?
Ans. 2.28

Qu. Looking for the measured protein stability index of P23E , can you help?
Ans. 5.11

Qu. Looking for the measured protein stability index of K17G , can you help?
Ans. 3.75

Qu. Looking for the measured protein stability index of R5K , can you help?
Ans. 2.49

Qu. Looking for the measured protein stability index of S7E , can you help?
Ans. 3.83

Qu. Looking for the measured protein stability index of D13Y , can you help?
Ans. 2.54

Qu. Looking for the measured protein stability index of L14P , can you help?
Ans. 2.57

Qu. Looking for the measured protein stability index of T22A , can you help?
Ans. 3.29

Qu. Looking for the measured protein stability index of S8P , can you help?
Ans. 3.95

Qu. Looking for the measured protein stability index of S7W , can you help?
Ans. 2.64

Qu. Looking for the measured protein stability index of S8D , can you help?
Ans. 2.99

Qu. Looking for the measured protein stability index of V11R , can you help?
Ans. 1.87

Qu. Looking for the measured protein stability index of D9R , can you help?
Ans. 2.3

Qu. Looking for the measured protein stability index of G20I , can you help?
Ans. 3.86

Qu. Looking for the measured protein stability index of D1H , can you help?
Ans. 2.51

Qu. Looking for the measured protein stability index of R5Q , can you help?
Ans. 2.52

Qu. Looking for the measured protein stability index of P23W , can you help?
Ans. 3.31

Qu. Looking for the measured protein stability index of G20H , can you help?
Ans. 3.79

Qu. Looking for the measured protein stability index of S21M , can you help?
Ans. 1.87

Qu. Looking for the measured protein stability index of V6N , can you help?
Ans. 2.86

Qu. Looking for the measured protein stability index of V11D , can you help?
Ans. 2.54

Qu. Looking for the measured protein stability index of T22S , can you help?
Ans. 3.1

Qu. Looking for the measured protein stability index of R5H , can you help?
Ans. 2.62

Qu. Looking for the measured protein stability index of W3P , can you help?
Ans. 5.26

Qu. Looking for the measured protein stability index of S7F , can you help?
Ans. 2.45

Qu. Looking for the measured protein stability index of S8F , can you help?
Ans. 2.36

Qu. Looking for the measured protein stability index of P23K , can you help?
Ans. 5.05

Qu. Looking for the measured protein stability index of S19P , can you help?
Ans. 2.34

Qu. Looking for the measured protein stability index of P23H , can you help?
Ans. 4.63

Qu. Looking for the measured protein stability index of Y18K , can you help?
Ans. 4.17

Qu. Looking for the measured protein stability index of T22N , can you help?
Ans. 4.05

Qu. Looking for the measured protein stability index of P23I , can you help?
Ans. 3.13

Qu. Looking for the measured protein stability index of T22G , can you help?
Ans. 2.58

Qu. Looking for the measured protein stability index of A12R , can you help?
Ans. 2.46

Qu. Looking for the measured protein stability index of L14M , can you help?
Ans. 2.65

Qu. Looking for the measured protein stability index of T22F , can you help?
Ans. 2.12

Qu. Looking for the measured protein stability index of S19N , can you help?
Ans. 3.07

Qu. Looking for the measured protein stability index of T22D , can you help?
Ans. 2.98

Qu. Looking for the measured protein stability index of K17F , can you help?
Ans. 3.36

Qu. Looking for the measured protein stability index of D13N , can you help?
Ans. 2.4

Qu. Looking for the measured protein stability index of K17C , can you help?
Ans. 3.04

Qu. Looking for the measured protein stability index of D13A , can you help?
Ans. 2.66

Qu. Looking for the measured protein stability index of D9M , can you help?
Ans. 2.59

Qu. Looking for the measured protein stability index of D9K , can you help?
Ans. 2.36

Qu. Looking for the measured protein stability index of V6A , can you help?
Ans. 2.27

Qu. Looking for the measured protein stability index of Y18F , can you help?
Ans. 2.44

Qu. Looking for the measured protein stability index of W3G , can you help?
Ans. 5.28
